Compiled from multiple publications: Ki readings for Beta-galactosidase (Bos taurus).
Biological target: Beta-galactosidase (Bos taurus)
Sequence (Q58D55 whole entry): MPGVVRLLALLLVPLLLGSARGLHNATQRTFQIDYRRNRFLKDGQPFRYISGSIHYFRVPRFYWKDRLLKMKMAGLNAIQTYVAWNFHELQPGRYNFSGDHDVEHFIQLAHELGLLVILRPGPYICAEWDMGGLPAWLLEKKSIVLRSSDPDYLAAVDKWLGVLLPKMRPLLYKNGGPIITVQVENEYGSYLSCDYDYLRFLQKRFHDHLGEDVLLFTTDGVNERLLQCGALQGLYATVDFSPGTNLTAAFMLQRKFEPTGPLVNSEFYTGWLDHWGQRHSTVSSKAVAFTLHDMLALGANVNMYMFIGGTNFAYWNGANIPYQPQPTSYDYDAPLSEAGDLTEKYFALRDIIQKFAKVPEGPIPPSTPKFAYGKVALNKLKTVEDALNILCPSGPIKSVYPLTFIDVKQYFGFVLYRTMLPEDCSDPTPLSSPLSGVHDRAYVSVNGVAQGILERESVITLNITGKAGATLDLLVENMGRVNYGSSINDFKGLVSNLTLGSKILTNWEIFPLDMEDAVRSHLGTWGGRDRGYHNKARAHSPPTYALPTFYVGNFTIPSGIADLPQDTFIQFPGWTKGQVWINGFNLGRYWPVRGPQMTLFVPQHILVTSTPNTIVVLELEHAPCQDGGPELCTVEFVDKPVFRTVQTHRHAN
Please respond with the number in µM and leave the unit unwritten.

Q: Which value of Ki has been reported for `O=C1CC[C@@]2(CO)[C@@H](O)[C@H](O)[C@H](O)CN12` in the records?
A: 3.1

Q: Which value of Ki has been reported for `CO[C@@H]1CN(C)C[C@@H](CO)O1` in the records?
A: 126

Q: Which value of Ki has been reported for `O=C1CC[C@]2(CO)[C@@H](O)[C@H](O)[C@@H](O)CN12` in the records?
A: 0.2

Q: Which value of Ki has been reported for CC1CC(NCCCCc2ccccc2)C(O)C(O)C1O (stereo not given) in the records?
A: 0.046

Q: Which value of Ki has been reported for `CO[C@@H]1CN(O)C[C@@H](CO)O1` in the records?
A: 20.2
